- Organism: Rattus norvegicus
- method summary: Open TG-GATES - Regimen: Daily Repeat
- Assay type: toxicity, organism-based, Sprague-Dawley
- Set-up: regimen Daily Repeat, gender Male, age 6 weeks
- reported conditions: in vivo, po, 300 mg/kg, […], tissue Plasma, route gavage, dose level Middle, time 14 day
Kindly state ALP for each of the entries shown.
// return numeric value only (unit: IU/L, not printed)

Recorded ALP for COC1=CC(=O)C[C@@H](C)[C@]12Oc1c(Cl)c(OC)cc(OC)c1C2=O , please?
784.6

Report ALP for CCOC(=O)CCC(=O)O[C@H]1[C@H](O[C@@H]2[C@@H](C)[C@H](O[C@H]3C[C@@](C)(OC)[C@@H](O)[C@H](C)O3)[C@@H](C)C(=O)O[C@H](CC)[C@@](C)(O)[C@H](O)[C@@H](C)C(=O)[C@H](C)C[C@@]2(C)O)O[C@H](C)C[C@@H]1N(C)C [ERYTHROMYCIN ETHYLSUCCINATE] please.
1368.6

So what does the record say about ALP for NC(N)=Nc1nc(CSCCC(N)=NS(N)(=O)=O)cs1 ?
907.6

If you can, please state the reported ALP value of COc1ccc2[nH]c([S+]([O-])Cc3ncc(C)c(OC)c3C)nc2c1 (stereo not given) .
808.4

Query (molecule): CCOc1ccc(NC(=O)CC(C)O)cc1 (stereo not given) ; field requested: ALP
1729.4

* * *

- Species on record: Rattus norvegicus
- method summary: Open TG-GATES - Regimen: Single
- Type: toxicity, organism-based, Sprague-Dawley
- Set-up: regimen Single, gender Male, age 6 weeks
- reported conditions: in vivo, po, 300 mg/kg, 6 h, tissue Plasma, route gavage, dose level Middle
measured parameter: PL
Give me the value, and tack the unit on after it.

Give the measured PL of COC1=CC(=O)C[C@@H](C)[C@]12Oc1c(Cl)c(OC)cc(OC)c1C2=O .
150.6 mg/dL

What value of PL has been recorded for this entry: COc1ccc2[nH]c([S+]([O-])Cc3ncc(C)c(OC)c3C)nc2c1 (centres undefined)
145.6 mg/dL

Look up PL: CCOC(=O)CCC(=O)O[C@H]1[C@H](O[C@@H]2[C@@H](C)[C@H](O[C@H]3C[C@@](C)(OC)[C@@H](O)[C@H](C)O3)[C@@H](C)C(=O)O[C@H](CC)[C@@](C)(O)[C@H](O)[C@@H](C)C(=O)[C@H](C)C[C@@]2(C)O)O[C@H](C)C[C@@H]1N(C)C [ERYTHROMYCIN ETHYLSUCCINATE]
140 mg/dL

Fill in the blank: the reported PL of NC(N)=Nc1nc(CSCCC(N)=NS(N)(=O)=O)cs1 is ____.
131.2 mg/dL

* * *

- Species: Rattus norvegicus
- method summary: Open TG-GATES - Regimen: Daily Repeat
- Type: toxicity, organism-based, Sprague-Dawley
- Set-up: regimen Daily Repeat, gender Male, age 6 weeks
- reported conditions: in vivo, po, 100 mg/kg, 72 h, tissue Plasma, route gavage, dose level Low, time 3 day
Please go through the items and note down their TP.
Phrase the answer as number then unit, nothing more needed.

Fill in the blank: the reported TP of NC(N)=Nc1nc(CSCCC(N)=NS(N)(=O)=O)cs1 [FAMOTIDINE] is ____.
5.5 g/dL

# get_value(readout='TP', item= COc1ccc2[nH]c([S+]([O-])Cc3ncc(C)c(OC)c3C)nc2c1 (stereo not given) [OMEPRAZOLE] )
5.6 g/dL

Which TP is listed for CCOC(=O)CCC(=O)O[C@H]1[C@H](O[C@@H]2[C@@H](C)[C@H](O[C@H]3C[C@@](C)(OC)[C@@H](O)[C@H](C)O3)[C@@H](C)C(=O)O[C@H](CC)[C@@](C)(O)[C@H](O)[C@@H](C)C(=O)[C@H](C)C[C@@]2(C)O)O[C@H](C)C[C@@H]1N(C)C [ERYTHROMYCIN ETHYLSUCCINATE] ?
5.5 g/dL

Could you tell me which TP is on file for CCOc1ccc(NC(=O)CC(C)O)cc1 (stereo not given) [BUCETIN] ?
5.9 g/dL

Entry under review: COC1=CC(=O)C[C@@H](C)[C@]12Oc1c(Cl)c(OC)cc(OC)c1C2=O [GRISEOFULVIN] . Reported TP?
5.5 g/dL
